- Target Or System: Ba/F3-ERBB2-A775_G776insYVMA cells (Homo sapiens, UniProt P04626, DUP772-775, cells depend on it)
- Sequence (P04626 with tags, fused parts or gaps DUP772-775): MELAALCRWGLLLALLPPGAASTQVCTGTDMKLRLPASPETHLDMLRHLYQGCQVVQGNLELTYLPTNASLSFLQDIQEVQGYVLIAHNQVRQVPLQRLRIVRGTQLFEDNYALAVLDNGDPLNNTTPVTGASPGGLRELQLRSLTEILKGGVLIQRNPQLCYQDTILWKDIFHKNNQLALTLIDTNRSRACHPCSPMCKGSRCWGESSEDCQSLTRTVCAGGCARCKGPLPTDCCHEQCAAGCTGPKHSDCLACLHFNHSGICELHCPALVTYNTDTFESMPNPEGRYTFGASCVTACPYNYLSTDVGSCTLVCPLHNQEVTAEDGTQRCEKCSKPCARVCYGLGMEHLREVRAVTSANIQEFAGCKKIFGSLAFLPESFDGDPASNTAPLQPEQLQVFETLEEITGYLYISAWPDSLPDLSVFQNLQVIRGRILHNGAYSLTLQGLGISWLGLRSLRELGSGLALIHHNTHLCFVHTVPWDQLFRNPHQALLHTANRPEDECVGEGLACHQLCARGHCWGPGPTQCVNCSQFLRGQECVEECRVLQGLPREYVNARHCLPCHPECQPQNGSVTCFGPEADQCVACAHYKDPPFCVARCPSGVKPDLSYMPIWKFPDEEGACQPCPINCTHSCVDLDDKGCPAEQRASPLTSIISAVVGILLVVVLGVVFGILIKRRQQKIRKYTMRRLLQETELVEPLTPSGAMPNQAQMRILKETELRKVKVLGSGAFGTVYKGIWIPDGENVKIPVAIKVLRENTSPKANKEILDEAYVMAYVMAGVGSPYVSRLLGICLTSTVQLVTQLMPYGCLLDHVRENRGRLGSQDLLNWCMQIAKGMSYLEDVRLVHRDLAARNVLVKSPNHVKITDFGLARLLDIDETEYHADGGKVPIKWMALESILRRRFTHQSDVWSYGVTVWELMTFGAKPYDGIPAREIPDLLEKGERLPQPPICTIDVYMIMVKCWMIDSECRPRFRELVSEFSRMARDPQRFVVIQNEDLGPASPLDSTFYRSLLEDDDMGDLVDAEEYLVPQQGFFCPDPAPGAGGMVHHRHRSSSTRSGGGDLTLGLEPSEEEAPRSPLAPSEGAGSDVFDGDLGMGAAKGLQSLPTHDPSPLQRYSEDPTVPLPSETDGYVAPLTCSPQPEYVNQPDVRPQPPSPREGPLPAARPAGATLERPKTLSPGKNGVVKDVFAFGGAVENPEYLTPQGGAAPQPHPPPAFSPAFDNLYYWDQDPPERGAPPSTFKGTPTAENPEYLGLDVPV
- Protocol Details: BA/F3 (ERBB2 A775_G776 insYVMA) proliferation
- Format: cell-based
- Conditions: Table 12; read-out: BA/F3 (ERBB2 A775_G776 insYVMA) IC50
For each of the molecules below, state its GI50.
Numbers only; they are read as nM.

# input Determine its reported GI50: COc1c(Cl)cccc1Nc1c(-c2ccncc2OCC(C)(C)OC)[nH]c2c1C(=O)NCC2
# output 41.1

# input Determine its reported GI50: COc1c(F)cccc1Nc1c(-c2ccncc2OCC(C)(C)OC)[nH]c2c1C(=O)NCC2
# output 17.1

# input Determine its reported GI50: COc1c(Cl)cccc1Nc1c(-c2ccncc2OC[C@@H]2CCCN2C)[nH]c2c1C(=O)NCC2
# output 21.7

# input Determine its reported GI50: COc1c(Cl)cccc1Nc1c(-c2ccncc2OC[C@@H]2CCCO2)[nH]c2c1C(=O)NCC2
# output 6.62

# input Determine its reported GI50: Cc1c(F)cccc1Nc1c(-c2ccncc2OC[C@@H]2CCCN2C)[nH]c2c1C(=O)NCC2
# output 231

# input Determine its reported GI50: COc1c(F)cccc1Nc1c(-c2ccncc2OC[C@@H](C)OC)[nH]c2c1C(=O)NCC2
# output 14.9

# input Determine its reported GI50: COc1c(Cl)cccc1Nc1c(-c2ccncc2OC[C@H]2CCCO2)[nH]c2c1C(=O)NCC2
# output 11.5

###

For each of the compounds below, state its pIC50.
- Tested on: Ba/F3-EGFR-D770_N771 insSVD C797S cells
- Protocol Details: BA/F3 (EGFR D770_N771 insSVD C797S) proliferation, acquired resistance
- Type: cell-based
- Conditions: Ba/F3 EGFR-D770-N771ins_SVD; Table 11; acquired resistance space
Please treat pIC50 as minus the base-10 logarithm of the molar concentration.

# input Determine its reported pIC50: COc1c(Cl)cccc1Nc1c(-c2ccncc2OC[C@@H]2CCCN2C)[nH]c2c1C(=O)NCC2
# output 7.76

# input Determine its reported pIC50: COc1c(Cl)cccc1Nc1c(-c2ccncc2OC[C@@H]2CCCO2)[nH]c2c1C(=O)NCC2
# output 7.82

# input Determine its reported pIC50: COc1c(F)cccc1Nc1c(-c2ccncc2OCC(C)(C)OC)[nH]c2c1C(=O)NCC2
# output 7.78

###

- System: Ba/F3-EGFR-D770_N771 insSVD C797S cells
- Protocol Details: BA/F3 (EGFR D770_N771 insSVD C797S) proliferation, acquired resistance
- Type: cell-based
- Conditions: Ba/F3 EGFR-D770-N771ins_SVD; Table 11; acquired resistance space
Test Readout: IC50

# input Determine its reported IC50: COc1c(Cl)cccc1Nc1c(-c2ccncc2OCC(C)(C)OC)[nH]c2c1C(=O)NCC2
# output 0.0494 µM

# input Determine its reported IC50: COc1c(F)cccc1Nc1c(-c2ccncc2OC[C@@H](C)OC)[nH]c2c1C(=O)NCC2
# output 0.0256 µM

# input Determine its reported IC50: Cc1c(F)cccc1Nc1c(-c2ccncc2OC[C@@H]2CCCN2C)[nH]c2c1C(=O)NCC2
# output 0.198 µM

# input Determine its reported IC50: COc1c(Cl)cccc1Nc1c(-c2ccncc2OC[C@H]2CCCO2)[nH]c2c1C(=O)NCC2
# output 0.0238 µM

###

- Target Or System: Ba/F3-EGFR-L858R cells (Homo sapiens, UniProt P00533, L858R, cells depend on it)
- Sequence (P00533 whole entry L858R): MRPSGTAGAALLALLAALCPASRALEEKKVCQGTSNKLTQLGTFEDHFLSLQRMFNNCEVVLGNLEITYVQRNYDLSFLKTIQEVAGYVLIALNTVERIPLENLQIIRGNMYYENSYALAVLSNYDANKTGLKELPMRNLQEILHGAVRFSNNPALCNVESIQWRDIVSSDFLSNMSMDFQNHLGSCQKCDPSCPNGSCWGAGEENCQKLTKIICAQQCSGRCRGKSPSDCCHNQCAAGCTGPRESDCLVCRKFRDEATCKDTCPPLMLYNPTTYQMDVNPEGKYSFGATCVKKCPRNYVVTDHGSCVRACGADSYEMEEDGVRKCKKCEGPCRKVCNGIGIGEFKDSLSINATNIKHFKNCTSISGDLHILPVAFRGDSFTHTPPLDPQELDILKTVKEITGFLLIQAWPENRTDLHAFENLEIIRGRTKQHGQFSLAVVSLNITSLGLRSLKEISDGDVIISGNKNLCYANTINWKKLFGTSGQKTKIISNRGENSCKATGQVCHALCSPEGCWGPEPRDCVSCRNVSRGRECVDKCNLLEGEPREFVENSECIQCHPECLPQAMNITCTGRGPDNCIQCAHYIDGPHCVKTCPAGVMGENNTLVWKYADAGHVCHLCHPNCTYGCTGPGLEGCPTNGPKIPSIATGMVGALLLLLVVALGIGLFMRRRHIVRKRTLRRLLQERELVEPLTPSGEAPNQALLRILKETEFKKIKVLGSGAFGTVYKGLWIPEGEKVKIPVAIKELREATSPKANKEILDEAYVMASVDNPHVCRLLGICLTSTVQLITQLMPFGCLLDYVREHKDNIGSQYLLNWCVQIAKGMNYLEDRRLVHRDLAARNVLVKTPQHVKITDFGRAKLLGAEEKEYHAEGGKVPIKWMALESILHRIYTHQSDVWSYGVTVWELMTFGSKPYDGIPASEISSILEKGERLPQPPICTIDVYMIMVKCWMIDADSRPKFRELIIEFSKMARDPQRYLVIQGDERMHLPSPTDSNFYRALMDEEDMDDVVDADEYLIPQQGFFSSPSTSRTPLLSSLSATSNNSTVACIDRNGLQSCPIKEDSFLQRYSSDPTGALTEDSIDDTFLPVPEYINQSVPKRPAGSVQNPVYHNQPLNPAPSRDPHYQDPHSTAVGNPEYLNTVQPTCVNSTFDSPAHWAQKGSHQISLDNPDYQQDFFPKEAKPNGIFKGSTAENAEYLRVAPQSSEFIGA
- Protocol Details: BA/F3 EGFR L858R cell survival assay, Cell Titer-Glo
- Type: cell-based
- Conditions: Table 10; classical activating and uncommon EGFR mutations; read-out: BA/F3 (EGFR L858R) IC50
Test Readout: GI50 (nM)
Numbers only; they are read as nM.

# input Determine its reported GI50: COc1c(Cl)cccc1Nc1c(-c2ccncc2OCC(C)(C)OC)[nH]c2c1C(=O)NCC2
# output 3.16

# input Determine its reported GI50: COc1c(F)cccc1Nc1c(-c2ccncc2OCC(C)(C)OC)[nH]c2c1C(=O)NCC2
# output 1.49

# input Determine its reported GI50: Cc1c(F)cccc1Nc1c(-c2ccncc2OC[C@@H]2CCCN2C)[nH]c2c1C(=O)NCC2
# output 22.7

# input Determine its reported GI50: COc1c(Cl)cccc1Nc1c(-c2ccncc2OC[C@@H]2CCCN2C)[nH]c2c1C(=O)NCC2
# output 1.39

# input Determine its reported GI50: COc1c(F)cccc1Nc1c(-c2ccncc2OC[C@@H](C)OC)[nH]c2c1C(=O)NCC2
# output 1.31

# input Determine its reported GI50: COc1c(Cl)cccc1Nc1c(-c2ccncc2OC[C@H]2CCCO2)[nH]c2c1C(=O)NCC2
# output 1.48

# input Determine its reported GI50: COc1c(Cl)cccc1Nc1c(-c2ccncc2OC[C@@H]2CCCO2)[nH]c2c1C(=O)NCC2
# output 0.685

###

- Target Or System: Ba/F3-EGFR-D770_N771 insNPG cells (Homo sapiens, UniProt P00533, INS772GNP, cells depend on it)
- Sequence (P00533 with tags, fused parts or gaps INS772GNP): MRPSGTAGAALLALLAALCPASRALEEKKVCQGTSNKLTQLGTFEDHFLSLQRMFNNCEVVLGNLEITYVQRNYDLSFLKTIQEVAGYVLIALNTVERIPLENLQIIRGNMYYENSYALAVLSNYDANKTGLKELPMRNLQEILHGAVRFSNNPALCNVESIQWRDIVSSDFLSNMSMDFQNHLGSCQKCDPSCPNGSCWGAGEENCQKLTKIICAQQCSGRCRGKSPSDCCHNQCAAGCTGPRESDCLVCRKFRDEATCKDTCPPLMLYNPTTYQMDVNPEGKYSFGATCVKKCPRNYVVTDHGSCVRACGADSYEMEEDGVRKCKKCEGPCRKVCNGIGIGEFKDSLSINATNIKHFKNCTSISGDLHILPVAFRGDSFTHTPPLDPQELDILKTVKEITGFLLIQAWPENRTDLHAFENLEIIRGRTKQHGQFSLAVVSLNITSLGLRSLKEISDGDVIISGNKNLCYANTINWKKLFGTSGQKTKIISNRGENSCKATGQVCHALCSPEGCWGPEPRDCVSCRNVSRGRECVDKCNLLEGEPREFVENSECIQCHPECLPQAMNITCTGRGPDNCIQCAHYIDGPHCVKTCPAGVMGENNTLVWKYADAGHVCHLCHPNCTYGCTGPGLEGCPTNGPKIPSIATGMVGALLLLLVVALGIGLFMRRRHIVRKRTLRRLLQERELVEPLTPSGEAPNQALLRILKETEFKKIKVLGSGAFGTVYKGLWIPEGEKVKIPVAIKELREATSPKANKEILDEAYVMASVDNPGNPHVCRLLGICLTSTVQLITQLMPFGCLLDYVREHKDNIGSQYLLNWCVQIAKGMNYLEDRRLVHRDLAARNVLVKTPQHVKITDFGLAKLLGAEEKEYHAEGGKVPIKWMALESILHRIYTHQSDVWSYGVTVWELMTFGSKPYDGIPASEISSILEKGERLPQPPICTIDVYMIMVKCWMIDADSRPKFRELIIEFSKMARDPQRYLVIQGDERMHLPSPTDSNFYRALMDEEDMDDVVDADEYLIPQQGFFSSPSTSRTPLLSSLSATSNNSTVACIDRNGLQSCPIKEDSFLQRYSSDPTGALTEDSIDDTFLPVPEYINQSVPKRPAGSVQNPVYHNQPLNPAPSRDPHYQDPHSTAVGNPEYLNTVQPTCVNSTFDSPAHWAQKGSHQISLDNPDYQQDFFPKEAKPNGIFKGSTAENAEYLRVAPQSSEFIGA
- Protocol Details: BA/F3 (insNPG) proliferation, EGFR Exon20 insertion mutation
- Format: cell-based
- Conditions: Table 9; EGFR Exon20 insertion mutations; read-out: BA/F3 (insNPG) IC50
Test Readout: log10 of GI50 (log10 of the value in nM)
Heads up: the numbers are on a log10 scale; they represent GI50 in nM.

# input Determine its reported log10 of GI50: COc1c(Cl)cccc1Nc1c(-c2ccncc2OC[C@@H]2CCCN2C)[nH]c2c1C(=O)NCC2
# output 1.00

# input Determine its reported log10 of GI50: COc1c(Cl)cccc1Nc1c(-c2ccncc2OCC(C)(C)OC)[nH]c2c1C(=O)NCC2
# output 1.42

# input Determine its reported log10 of GI50: COc1c(F)cccc1Nc1c(-c2ccncc2OCC(C)(C)OC)[nH]c2c1C(=O)NCC2
# output 1.11

# input Determine its reported log10 of GI50: COc1c(Cl)cccc1Nc1c(-c2ccncc2OC[C@H]2CCCO2)[nH]c2c1C(=O)NCC2
# output 1.12

# input Determine its reported log10 of GI50: COc1c(Cl)cccc1Nc1c(-c2ccncc2OC[C@@H]2CCCO2)[nH]c2c1C(=O)NCC2
# output 0.75

# input Determine its reported log10 of GI50: Cc1c(F)cccc1Nc1c(-c2ccncc2OC[C@@H]2CCCN2C)[nH]c2c1C(=O)NCC2
# output 2.06

# input Determine its reported log10 of GI50: COc1c(F)cccc1Nc1c(-c2ccncc2OC[C@@H](C)OC)[nH]c2c1C(=O)NCC2
# output 1.14

###

- Target Or System: Ba/F3-EGFR-V769_D770 insASV cells (Homo sapiens, UniProt P00533, DUP767-769, cells depend on it)
- Sequence (P00533 with tags, fused parts or gaps DUP767-769): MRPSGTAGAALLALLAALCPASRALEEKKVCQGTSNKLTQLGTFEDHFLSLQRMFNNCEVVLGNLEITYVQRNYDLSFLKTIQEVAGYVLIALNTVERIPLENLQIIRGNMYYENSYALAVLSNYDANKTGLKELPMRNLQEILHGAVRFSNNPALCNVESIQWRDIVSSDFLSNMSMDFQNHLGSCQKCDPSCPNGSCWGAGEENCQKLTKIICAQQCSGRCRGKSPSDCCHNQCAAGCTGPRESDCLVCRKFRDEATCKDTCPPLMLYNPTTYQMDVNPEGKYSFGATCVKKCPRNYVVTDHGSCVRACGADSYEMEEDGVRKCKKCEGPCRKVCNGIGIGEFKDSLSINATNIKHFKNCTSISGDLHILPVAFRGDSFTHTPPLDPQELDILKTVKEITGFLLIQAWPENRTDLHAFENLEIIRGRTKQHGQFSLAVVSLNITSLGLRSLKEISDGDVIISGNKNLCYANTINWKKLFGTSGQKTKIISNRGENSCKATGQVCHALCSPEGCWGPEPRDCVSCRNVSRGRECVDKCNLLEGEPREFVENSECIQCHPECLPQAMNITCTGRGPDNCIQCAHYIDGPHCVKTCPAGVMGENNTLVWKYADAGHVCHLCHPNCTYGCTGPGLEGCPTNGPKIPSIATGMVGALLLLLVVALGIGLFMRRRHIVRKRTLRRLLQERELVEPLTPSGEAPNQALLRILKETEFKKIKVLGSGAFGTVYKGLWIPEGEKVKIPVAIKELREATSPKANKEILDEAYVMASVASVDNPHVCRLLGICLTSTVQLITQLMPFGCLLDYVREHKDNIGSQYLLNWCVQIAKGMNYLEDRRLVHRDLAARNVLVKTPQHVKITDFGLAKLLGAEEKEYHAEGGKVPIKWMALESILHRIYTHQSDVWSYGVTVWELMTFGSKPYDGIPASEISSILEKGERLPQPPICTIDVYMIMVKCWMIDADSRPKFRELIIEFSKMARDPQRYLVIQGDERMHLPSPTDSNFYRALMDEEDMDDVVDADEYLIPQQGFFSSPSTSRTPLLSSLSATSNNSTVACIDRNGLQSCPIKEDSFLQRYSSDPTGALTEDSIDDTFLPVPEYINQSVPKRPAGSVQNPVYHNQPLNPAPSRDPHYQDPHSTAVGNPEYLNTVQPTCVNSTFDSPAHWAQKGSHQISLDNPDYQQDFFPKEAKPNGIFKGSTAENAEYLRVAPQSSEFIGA
- Protocol Details: BA/F3 (ASV) proliferation, EGFR Exon20 insertion mutation
- Type: cell-based
- Conditions: Table 9; EGFR Exon20 insertion mutations; read-out: BA/F3 (ASV) IC50
For each of the compounds below, state its log10(GI50).
Heads up: the numbers are on a log10 scale; they represent GI50 in nM.

# input Determine its reported log10(GI50): Cc1c(F)cccc1Nc1c(-c2ccncc2OC[C@@H]2CCCN2C)[nH]c2c1C(=O)NCC2 [Example 49]
# output 2.45

# input Determine its reported log10(GI50): COc1c(Cl)cccc1Nc1c(-c2ccncc2OCC(C)(C)OC)[nH]c2c1C(=O)NCC2 [Example 33]
# output 1.48

# input Determine its reported log10(GI50): COc1c(Cl)cccc1Nc1c(-c2ccncc2OC[C@@H]2CCCO2)[nH]c2c1C(=O)NCC2 [Example 66]
# output 0.81

# input Determine its reported log10(GI50): COc1c(Cl)cccc1Nc1c(-c2ccncc2OC[C@@H]2CCCN2C)[nH]c2c1C(=O)NCC2 [Example 48]
# output 1.18

# input Determine its reported log10(GI50): COc1c(Cl)cccc1Nc1c(-c2ccncc2OC[C@H]2CCCO2)[nH]c2c1C(=O)NCC2 [Example 67]
# output 1.11

# input Determine its reported log10(GI50): COc1c(F)cccc1Nc1c(-c2ccncc2OC[C@@H](C)OC)[nH]c2c1C(=O)NCC2 [Example 92]
# output 1.24

# input Determine its reported log10(GI50): COc1c(F)cccc1Nc1c(-c2ccncc2OCC(C)(C)OC)[nH]c2c1C(=O)NCC2 [Example 17]
# output 1.18

###

- Tested on: HCC-827 cells (EGFRex19del)
- Protocol Details: HCC-827 cell proliferation, Cell Titer Glo, 72 h
- Assay type: cell-based
- Conditions: Homo sapiens, HCC827, 72 h, Table 12, several values per example
For each of the compounds below, state its IC50.

# input Determine its reported IC50: COc1c(Cl)cccc1Nc1c(-c2ccncc2OC[C@@H]2CCCN2C)[nH]c2c1C(=O)NCC2 [Example 48]
# output < 3 nM

# input Determine its reported IC50: COc1c(F)cccc1Nc1c(-c2ccncc2OC[C@@H](C)OC)[nH]c2c1C(=O)NCC2 [Example 92]
# output < 3 nM
